Here, each record is paired with measured cell viability data.
# Test system: NOMO1
# TEST METHOD NOTES: cell viability relative to DMSO control; higher = less cytotoxic
# EXPERIMENTAL CONTEXT: RPMI 5 mM glucose + 10% dialyzed FBS; 48 h; 0.00702 µM
Your answer should be a plain number; it is taken to be in %.

INSERT INTO results (compound, value_type, meas_value) VALUES
  ('CN(C)C1=CC(=CC=C1)C\2=C\3C(=O)N(NC3=C/C(=O)N2C)C4=CC=CC=C4Cl', 'cell viability', 114),
  ('CCOc1cc2ncc(C#N)c(Nc3ccc(OCc4ccccn4)c(Cl)c3)c2cc1NC(=O)/C=C/CN(C)C', 'cell viability', 103),
  ('C[C@]12Cc3cn[nH]c3C[C@@H]1CC[C@@H]1[C@@H]2CC[C@@]2(C)[C@H]1CC[C@]2(C)O', 'cell viability', 122),
  ('CN(C)c1ccc2nc3ccc(N(C)C)cc3[s+]c2c1', 'cell viability', 99.6),
  ('O=C(O)CCCCC(CCSCc1ccccc1)SCc1ccccc1 (stereo unspecified)', 'cell viability', 124);

Next item in the queue.
query: Specify cell viability for CCN(CC)CCOc1ccc(Cc2ccccc2)cc1 and stop.
result: 108

---

# System: SEM cells
# TEST METHOD NOTES: cell viability relative to DMSO control; higher = less cytotoxic
# EXPERIMENTAL CONTEXT: RPMI 5 mM glucose + 10% FBS; 48 h; 0.19 µM
VALUE TYPE: cell viability (%)
Just the number in %, nothing appended.

INSERT INTO results (compound, meas_value) VALUES
  ('N\C1=N\C2=C(N=C[N]2COCCO)C(=O)N1', 104),
  ('CCN(CC)CCOc1ccc(Cc2ccccc2)cc1', 102),
  ('C[C@@H](NCCCc1cccc(C(F)(F)F)c1)c1cccc2ccccc12', 113);

query: Output cell viability of CC1=C(/C=C/C(C)=C/C=C/C(C)=C\C(=O)O)C(C)(C)CCC1
result: 107

query: Give recorded cell viability. COc1cccc2c1C(=O)c1c(O)c3c(c(O)c1C2=O)C[C@@](O)(C(=O)CO)C[C@@H]3O[C@H]1C[C@H](N)[C@H](O[C@H]2CCCCO2)[C@H](C)O1
result: 96.1

query: Give me measured cell viability, please, for this compound: CCn1c(-c2nonc2N)nc2c(C#CC(C)(C)O)ncc(OC[C@H]3CCCNC3)c21
result: 99.2

query: Read the entry C[C@@H]1O[C@@H](O[C@H]2C[C@@H](O)[C@]3(CO)[C@H]4[C@H](O)C[C@]5(C)[C@@H](C6=CC(=O)OC6)CC[C@]5(O)[C@@H]4CC[C@]3(O)C2)[C@H](O)[C@H](O)[C@H]1O and write its reported cell viability.
result: 14.9

query: Identify measured cell viability corresponding to CO[C@@]12[C@H](COC(N)=O)C/3=C(N1C[C@@H]4N[C@H]24)/C(=O)/C(=C(N)\C3=O)C
result: 97.1

query: Please list cell viability recorded for the compound CC(C)(O)[C@H]1CC[C@@](C)([C@H]2[C@@H](O)C[C@@]3(C)[C@@H]4C[C@H](O[C@@H]5O[C@H](CO)[C@@H](O)[C@H](O)[C@H]5O)[C@H]5C(C)(C)[C@@H](O[C@@H]6OC[C@@H](O)[C@H](O)[C@H]6O)CC[C@@]56C[C@@]46CC[C@]23C)O1
result: 123

query: Look up and state reported cell viability for COc1cc(Nc2c(C#N)cnc3cc(OCCCN4CCN(C)CC4)c(OC)cc23)c(Cl)cc1Cl
result: 84.7

query: Give reported cell viability value for CC[C@]12CC[C@H]3[C@@H](CCC/4=C/C(=O)CC[C@H]34)[C@@H]1CC[C@@]2(O)C#C
result: 85.2

query: Determine its reported cell viability: CC(=O)N[C@@H]1[C@@H](NC(N)=N)\C=C(/O[C@H]1[C@H](O)[C@H](O)CO)C(O)=O
result: 129

query: Tell me cell viability reported for CCc1cc2c(cc1N1CCC(N3CCOCC3)CC1)C(C)(C)c1[nH]c3cc(C#N)ccc3c1C2=O
result: 107

query: Give cell viability for CC[S+](=O)([O-])Nc1ccc2c(c1)/C(=C(/Nc1ccc(CN3CCCCC3)cc1)c1ccccc1)C(=O)N2
result: 17.9

query: Provide measured cell viability value, entry: N[S+](=O)([O-])c1cc2c(cc1Cl)NC(C(Cl)Cl)N[S+]2(=O)[O-] (stereo not given)
result: 113
